- TEST_SYSTEM: D(2) dopamine receptor (Homo sapiens)
- Sequence (P14416 whole entry): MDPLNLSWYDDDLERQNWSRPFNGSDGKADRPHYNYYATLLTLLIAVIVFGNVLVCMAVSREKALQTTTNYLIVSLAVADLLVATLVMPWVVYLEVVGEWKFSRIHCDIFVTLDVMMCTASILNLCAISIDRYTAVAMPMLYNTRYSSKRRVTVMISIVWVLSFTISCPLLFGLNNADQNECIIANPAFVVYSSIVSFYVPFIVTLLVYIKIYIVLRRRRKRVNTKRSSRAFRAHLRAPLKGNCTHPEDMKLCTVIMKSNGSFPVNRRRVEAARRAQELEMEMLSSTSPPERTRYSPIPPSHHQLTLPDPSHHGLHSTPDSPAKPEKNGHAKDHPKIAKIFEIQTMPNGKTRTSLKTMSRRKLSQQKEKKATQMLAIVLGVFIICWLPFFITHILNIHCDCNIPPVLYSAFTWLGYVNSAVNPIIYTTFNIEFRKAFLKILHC
- ASSAY_METHOD_TEXT: Displacement of [3H]spiperone from human dopamine D2 receptor expressed in CHO cells
- Assay type: cell-based
Consider the following molecules and their measured Ki readings.

Recorded results for 10 molecules are shown here.
| MOLECULE | Ki |
| --- | --- |
| O=S(=O)(c1ccc(F)cc1)c1ccc(/C=C/c2ccc(F)cc2)nc1 | > 1000 nM |
| [O-][S+](c1ccccc1)c1ccc(/C=C/c2ccc(F)cc2)nc1 (stereo unspecified) | > 2000 nM |
| O=S(=O)(c1ccccc1)c1ccc(/C=C/c2ccc(F)cc2F)nc1 | > 2000 nM |
| O=S(=O)(c1ccc(/C=C/c2cccc(F)c2)nc1)c1ccccc1F | > 2000 nM |
| O=S(=O)(c1ccc(/C=C/c2ccccc2F)nc1)c1ccccc1F | > 2000 nM |
| O=S(=O)(c1ccc(/C=C/c2ccc(F)cc2F)nc1)c1ccccc1F | > 1000 nM |
| [O-][S+](c1ccccc1)c1ccc(/C=C/c2ccc(F)cc2F)nc1 (single isomer, unassigned; form 2) | > 2000 nM |
| O=S(=O)(c1ccc(F)cc1)c1ccc(/C=C/c2ccc(F)cc2)cn1 | > 1000 nM |
| O=S(=O)(c1ccc(/C=C/c2ccc(F)cc2O)nc1)c1ccccc1F | > 2000 nM |
| O=S(=O)(c1ccc(/C=C/c2ccccc2O)nc1)c1ccccc1F | > 2000 nM |

// moving on: another record for Ki
Ki recorded for this molecule, N#Cc1cc(F)ccc1/C=C/c1ccc(S(=O)(=O)c2ccccc2F)cn1 , is > 2000 nM

This collection of values is drawn from ChEMBL document CHEMBL1139157.
